Target: UniProtKB P00519
Sequence (P00519 242-493 limits assumed): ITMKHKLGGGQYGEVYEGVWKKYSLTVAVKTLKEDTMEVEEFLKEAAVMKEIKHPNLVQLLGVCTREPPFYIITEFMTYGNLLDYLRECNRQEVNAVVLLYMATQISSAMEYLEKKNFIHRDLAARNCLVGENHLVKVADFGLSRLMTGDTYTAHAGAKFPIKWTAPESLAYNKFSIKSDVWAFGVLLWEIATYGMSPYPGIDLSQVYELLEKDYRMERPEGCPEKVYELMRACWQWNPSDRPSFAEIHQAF
pIC50: −log10 of the molar value.
Endpoint: pIC50

CNC(=O)c1cc(Oc2ccc(NC(=O)Nc3cc(C(C)(C)C)nn3-c3ccc4ncccc4c3)cc2)ccn1 = 9.00

====

Test: Protein binding
Assay type: in vitro ADME
Endpoint: fraction unbound

CNC(=O)c1cc(Oc2ccc(NC(=O)Nc3cc(C(C)(C)C)nn3-c3ccc4ncccc4c3)c(F)c2)ccn1 = 0.01 to 0.03

====

Target: ABL1^T315I (Homo sapiens, UniProt P00519, T315I)
Sequence (P00519 242-493 T315I limits assumed): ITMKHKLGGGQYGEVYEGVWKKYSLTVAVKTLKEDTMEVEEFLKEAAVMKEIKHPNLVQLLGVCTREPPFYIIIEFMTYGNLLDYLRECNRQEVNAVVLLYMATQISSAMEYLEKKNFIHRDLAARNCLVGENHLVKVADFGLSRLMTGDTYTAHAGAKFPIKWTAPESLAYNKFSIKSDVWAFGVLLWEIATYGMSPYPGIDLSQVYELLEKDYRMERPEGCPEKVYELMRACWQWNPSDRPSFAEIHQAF
Test: Inhibition of purified ABL1 T315I kinase domain
Settings: read-out: IC50 for ABL1^T315I
Endpoint: IC50 (nM)

CNC(=O)c1cc(Oc2ccc(NC(=O)Nc3cc(C(C)(C)C)nn3-c3ccc4ncccc4c3)cc2)ccn1 = 7

====

Molecular target: CDK2/Cyclin D (Homo sapiens)
Assay: Kinase inhibition profile, purified kinase domain
Endpoint: IC50

CNC(=O)c1cc(Oc2ccc(NC(=O)Nc3cc(C(C)(C)C)nn3-c3ccc4ncccc4c3)c(F)c2)ccn1 [DCC-2036] = > 5 µM

These entries and their values trace back to paper PMC3077923.
